# EXPERIMENTAL TARGET: human recombinant P2X7 receptors (Homo sapiens, UniProt Q99572)
# Construct: expressed in transfected cells
# Sequence (Q99572 1-595): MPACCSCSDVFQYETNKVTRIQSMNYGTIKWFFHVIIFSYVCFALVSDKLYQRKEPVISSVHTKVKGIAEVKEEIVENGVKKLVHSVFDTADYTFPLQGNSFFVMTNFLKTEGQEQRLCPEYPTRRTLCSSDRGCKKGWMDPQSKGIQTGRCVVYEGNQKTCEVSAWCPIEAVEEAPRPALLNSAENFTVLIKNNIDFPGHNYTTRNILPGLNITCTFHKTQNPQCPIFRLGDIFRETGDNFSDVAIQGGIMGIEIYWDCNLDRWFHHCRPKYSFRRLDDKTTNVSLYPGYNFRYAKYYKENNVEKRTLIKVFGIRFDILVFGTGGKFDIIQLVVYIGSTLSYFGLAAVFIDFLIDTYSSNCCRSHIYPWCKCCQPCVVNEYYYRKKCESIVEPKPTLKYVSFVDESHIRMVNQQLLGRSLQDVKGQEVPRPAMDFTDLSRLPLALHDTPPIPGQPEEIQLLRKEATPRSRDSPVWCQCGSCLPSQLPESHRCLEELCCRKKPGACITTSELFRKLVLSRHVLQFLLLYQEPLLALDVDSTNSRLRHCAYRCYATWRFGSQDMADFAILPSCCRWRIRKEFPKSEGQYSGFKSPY
# TEST PROTOCOL: Ethidium Accumulation Assay 1 (HEK293 cells, ATP-induced ethidium uptake)
# Format: cell-based
# CONDITION: HEK293 cells expressing human P2X7; 1 mM ATP; sometimes mean of more than one measurement; read-out: Assay 1 (antagonist pIC50 for blocking ATP responses) (converted)
OBSERVABLE: IC50

Cc1ccnc(-c2nnc3n2CCN(C(=O)c2cccc(C(F)(F)F)c2Cl)C3)c1    < 10 nM
O=C(c1cccc(C(F)(F)F)c1Cl)N1CCn2c(nnc2C2CC2)C1    < 100 nM
O=C(c1cccc(Cl)c1)N1CCn2c(nnc2-c2ccccn2)C1    < 100 nM
O=C(c1ccccc1Cl)N1CCn2c(nnc2-c2cnccn2)C1    < 100 nM
O=C(c1ccc(F)cc1Cl)N1CCn2c(nnc2-c2cnc(Cl)cn2)C1    < 501 nM

Answer for every listed entry: what is its IC50? The entries follow.
1. O=C(c1cccc(F)c1F)N1CCn2c(nnc2-c2ccccn2)C1
2. O=C(c1c(Cl)cc(Cl)cc1Cl)N1CCn2c(Br)nnc2C1
3. O=C(c1ccccc1Cl)N1CCn2c(nnc2-c2ccncn2)C1
4. O=C(c1ccc(Cl)cc1F)N1CCn2c(nnc2-c2cnccn2)C1

< 100 nM
< 501 nM
< 501 nM
< 10 nM
